meta.source: the NIST ThermoML archive (doi:10.1016/j.jct.2009.01.006)

# assay conditions: 303.15 K; 101.33 kPa; Liquid; Linear variable-path acoustic interferometer
endpoint label: speed of sound (m/s)
Provide the reading as a plain figure in m/s.

Enquiry: Data request, read-out speed of sound, for CCC(=O)CC
Return: 1201

Enquiry: Next compound up: CCC(C)=O
Return: 1168

Enquiry: Next compound up: CCCC(C)=O
Return: 1197

Enquiry: Next compound up: CC(=O)CC(C)C
Return: 1172

Enquiry: Next compound up: CN1CCCC1=O
Return: 1552

Enquiry: Next compound up: O=C1CCCCC1
Return: 1385

###

Would you kindly list mass density for each of these compounds?
# test description: φn = volume fraction of the nth substance listed
# assay conditions: 303.15 K; 101 kPa; Liquid; φ2 = 0
Numbers after ± are expanded uncertainties.
Answers without a unit are incomplete; give the number and then its unit.

Enquiry: Data request, read-out mass density, for CC(=O)CC(C)C [4-methylpentan-2-one] + CN1CCCC1=O
Return: 791.24 ± 5.2 kg/m3

Enquiry: Next compound up: CCCC(C)=O [pentan-2-one] + CN1CCCC1=O
Return: 796.54 ± 5.2 kg/m3

Enquiry: Next compound up: CCC(=O)CC [pentan-3-one] + CN1CCCC1=O
Return: 804.57 ± 5.2 kg/m3

Enquiry: Next compound up: O=C1CCCCC1 [cyclohexanone] + CN1CCCC1=O
Return: 937.58 ± 5.2 kg/m3

###

# assay conditions: 303.15 K; 101 kPa; Liquid; Linear variable-path acoustic interferometer
endpoint label: speed of sound (m/s)
Provide the reading as a plain figure in m/s.

Enquiry: Data request, read-out speed of sound, for CC(=O)CC(C)C
Return: 1168

Enquiry: Next molecule up: CCC(=O)CC
Return: 1198

Enquiry: Next molecule up: CCCC(C)=O
Return: 1202

Enquiry: Next molecule up: O=C1CCCCC1
Return: 1386

Enquiry: Next molecule up: CCC(C)=O
Return: 1167

###

# assay conditions: 303.15 K; 101 kPa; Liquid
endpoint label: mass density (kg/m3)
Provide the reading as a plain figure in kg/m3.

Enquiry: Data request, read-out mass density, for CC(=O)CC(C)C [4-methylpentan-2-one]
Return: 791.24

Enquiry: Next molecule up: CCC(C)=O [butanone]
Return: 794.51

Enquiry: Next molecule up: CCC(=O)CC [pentan-3-one]
Return: 804.57

Enquiry: Next molecule up: O=C1CCCCC1 [cyclohexanone]
Return: 937.58

Enquiry: Next molecule up: CN1CCCC1=O [N-methylpyrrolidone]
Return: 1023.4

Enquiry: Next molecule up: CCCC(C)=O [pentan-2-one]
Return: 796.54

###

# test description: φn = volume fraction of the nth substance listed
# assay conditions: 303.15 K; 101 kPa; Liquid; Linear variable-path acoustic interferometer; φ2 = 0
Would you kindly list speed of sound for each of these compounds?
Provide the reading as a plain figure in m/s.

Enquiry: Data request, read-out speed of sound, for CCCC(C)=O [pentan-2-one] + CN1CCCC1=O
Return: 1202

Enquiry: Next compound up: CC(=O)CC(C)C [4-methylpentan-2-one] + CN1CCCC1=O
Return: 1168

Enquiry: Next compound up: CCC(=O)CC [pentan-3-one] + CN1CCCC1=O
Return: 1198

Enquiry: Next compound up: O=C1CCCCC1 [cyclohexanone] + CN1CCCC1=O
Return: 1386

Enquiry: Next compound up: CCC(C)=O [butanone] + CN1CCCC1=O
Return: 1167
